Tested on: 186277-243-T-J2-PDC spheroids with HUVEC/MSC, viability
Test: Anticancer human tumor 186277-243-T-J2-PDC patient-derived colon adenocarcinoma cell line growth inhibition [CLK]
Settings: second compound 3.16 µM; first compound 0.000949 µM; active compounds read low
recorded-metric: viability, T/C (%)
Write it as a number; the unit % goes unstated.

With 186277-243-T-J2-PDC spheroids with HUVEC/MSC, viability as the test system, C=CC(=O)Nc1cc(Nc2nccc(-c3cn(C)c4ccccc34)n2)c(OC)cc1N(C)CCN(C)C + CN1CCN(c2cc(C(=O)Nc3cc4cc(-c5cnn(C)c5)ccc4cn3)ccn2)CC1 showed viability, T/C of 1.64

With 186277-243-T-J2-PDC spheroids with HUVEC/MSC, viability as the test system, CC(C)CC(NC(=O)C(Cc1ccccc1)NC(=O)c1cnccn1)B(O)O (centres undefined) + CN1CCN(c2cc(C(=O)Nc3cc4cc(-c5cnn(C)c5)ccc4cn3)ccn2)CC1 showed viability, T/C of 2.83

With 186277-243-T-J2-PDC spheroids with HUVEC/MSC, viability as the test system, CC(C)CC(NC(=O)C(Cc1ccccc1)NC(=O)c1cnccn1)B(O)O (centres undefined) + CNC(=O)c1ccc(Nc2nc(OC3CCCC3)c3c(-c4ccc5nc(C)oc5c4)c[nH]c3n2)c(OC)c1 showed viability, T/C of 33.3

With 186277-243-T-J2-PDC spheroids with HUVEC/MSC, viability as the test system, C=CC(=O)Nc1cc(Nc2nccc(-c3cn(C)c4ccccc34)n2)c(OC)cc1N(C)CCN(C)C + CNC(=O)c1ccc(Nc2nc(OC3CCCC3)c3c(-c4ccc5nc(C)oc5c4)c[nH]c3n2)c(OC)c1 showed viability, T/C of 36.3

* * *

Tested on: 186277-243-T-J2-PDC spheroids with HUVEC/MSC, viability
Experiment: Anticancer human tumor 186277-243-T-J2-PDC cell line growth inhibition [CLK];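 note: compound exposure lasted seven days before readout; 100% = DMSO vehicle control wells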
Conditions: second compound 10 µM; first compound 0.1 µM; active compounds read low
recorded-metric: viability, T/C (%)
Write it as a number; the unit % goes unstated.

viability, T/C reported for this compound C#Cc1c(F)ccc2cc(O)cc(-c3ncc4c(N5CC6CCC(C5)N6)nc(OCC56CCCN5CC(F)C6)nc4c3F)c12 (stereo not given) + CNC(=O)c1ccc(Nc2nc(OC3CCCC3)c3c(-c4ccc5nc(C)oc5c4)c[nH]c3n2)c(OC)c1 : 9.24

viability, T/C reported for this compound CC(Nc1ccc2c(c1)OCCn1cc(N3C(=O)OCC3C(F)F)nc1-2)C(N)=O (stereo not given) + CN1CCN(c2cc(C(=O)Nc3cc4cc(-c5cnn(C)c5)ccc4cn3)ccn2)CC1 : 1.39

viability, T/C reported for this compound O=C(c1cc(Cc2n[nH]c(=O)c3ccccc23)ccc1F)N1CCN(C(=O)C2CC2)CC1 + CNC(=O)c1ccc(Nc2nc(OC3CCCC3)c3c(-c4ccc5nc(C)oc5c4)c[nH]c3n2)c(OC)c1 : 37.5

viability, T/C reported for this compound Nc1ccccc1NC(=O)c1ccc(CNC(=O)OCc2cccnc2)cc1 + CNC(=O)c1ccc(Nc2nc(OC3CCCC3)c3c(-c4ccc5nc(C)oc5c4)c[nH]c3n2)c(OC)c1 : 32.1

viability, T/C reported for this compound CCc1c2c(nc3ccc(O)cc13)-c1cc3c(c(=O)n1C2)COC(=O)[C@]3(O)CC + CN1CCN(c2cc(C(=O)Nc3cc4cc(-c5cnn(C)c5)ccc4cn3)ccn2)CC1 : 1.3
